Listed below: GI50 values for each entry.
molecular target: BaF3 cell lines stably transfected with kinase EGFR L858R (Homo sapiens, UniProt P00533, L858R, cells depend on it); assay: Growth inhibition of BaF3 cell line stably transfected with kinase EGFR L858R (MTS); assay type: cell-based; settings: 48 h, read-out: growth inhibitory activity IC50, L858R
Sequence (P00533 whole entry L858R): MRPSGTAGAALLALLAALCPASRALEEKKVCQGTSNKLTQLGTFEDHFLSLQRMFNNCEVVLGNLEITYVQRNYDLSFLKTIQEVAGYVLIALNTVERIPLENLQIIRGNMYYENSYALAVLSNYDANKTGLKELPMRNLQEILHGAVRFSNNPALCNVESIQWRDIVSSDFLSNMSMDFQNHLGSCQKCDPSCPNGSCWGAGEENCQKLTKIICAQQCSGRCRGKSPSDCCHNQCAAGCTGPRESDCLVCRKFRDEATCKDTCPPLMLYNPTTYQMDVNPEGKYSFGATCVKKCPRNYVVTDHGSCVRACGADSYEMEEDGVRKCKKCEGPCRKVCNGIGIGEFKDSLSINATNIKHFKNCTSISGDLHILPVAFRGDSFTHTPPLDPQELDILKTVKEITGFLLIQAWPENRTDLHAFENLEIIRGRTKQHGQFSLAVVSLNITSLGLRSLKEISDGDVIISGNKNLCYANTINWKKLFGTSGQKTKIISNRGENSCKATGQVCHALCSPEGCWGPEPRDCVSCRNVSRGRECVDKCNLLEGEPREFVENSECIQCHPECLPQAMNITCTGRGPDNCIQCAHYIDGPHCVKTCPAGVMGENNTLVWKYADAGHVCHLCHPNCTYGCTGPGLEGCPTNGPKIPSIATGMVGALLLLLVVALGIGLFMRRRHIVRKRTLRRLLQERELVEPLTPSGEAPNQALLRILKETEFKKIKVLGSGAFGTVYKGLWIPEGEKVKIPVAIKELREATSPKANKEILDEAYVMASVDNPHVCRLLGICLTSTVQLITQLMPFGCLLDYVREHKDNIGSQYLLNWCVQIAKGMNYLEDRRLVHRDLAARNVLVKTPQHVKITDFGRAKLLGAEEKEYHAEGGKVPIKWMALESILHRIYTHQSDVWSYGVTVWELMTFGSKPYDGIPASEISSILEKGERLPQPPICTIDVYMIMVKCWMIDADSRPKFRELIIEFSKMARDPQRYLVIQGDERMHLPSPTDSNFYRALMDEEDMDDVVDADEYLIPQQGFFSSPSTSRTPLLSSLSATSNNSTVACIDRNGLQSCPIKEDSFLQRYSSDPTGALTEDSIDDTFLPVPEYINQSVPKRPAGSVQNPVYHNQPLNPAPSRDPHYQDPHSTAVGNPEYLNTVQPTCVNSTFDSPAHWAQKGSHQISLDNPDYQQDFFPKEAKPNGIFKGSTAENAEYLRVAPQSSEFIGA

{"compound": "C=Cc1cnc(Nc2cc(CC)c(N3CCC(N(C)C)CC3)cc2OC)nc1Nc1ccc2nccnc2c1P(C)(C)=O", "measured": "≤ 50 nM"}
{"compound": "C=Cc1cnc(Nc2ccc(N3CCC(N4CCN(C)CC4)CC3)c(CC)c2)nc1Nc1ccc2nccnc2c1S(=O)(=O)NC", "measured": "50 to 500 nM"}
{"compound": "C=Cc1cnc(Nc2cc(CC)c(N3CCC(N(C)C)CC3)cc2OC)nc1Nc1ccc2nccnc2c1NS(C)(=O)=O", "measured": "≤ 50 nM"}
{"compound": "C=Cc1cnc(Nc2cc(C3CC3)c(N3CCC(N4CCN(C)CC4)CC3)cc2OC)nc1Nc1ccc2nccnc2c1NS(C)(=O)=O", "measured": "≤ 50 nM"}

Query GI50 for C=Cc1cnc(Nc2cc(CC)c(N3CCC(N4CCN(C)CC4)CC3)nc2OC)nc1Nc1ccc2nccnc2c1P(C)(C)=O ≤ 50 nM

Find the measured GI50 of C=Cc1cnc(Nc2ccc(N3CCC(N4CCN(C)CC4)CC3)c(F)c2F)nc1Nc1ccc2nccnc2c1NS(C)(=O)=O and report it. 50 to 500 nM

Return GI50 for the following compound: C=Cc1cnc(Nc2ccc3c(c2)CCN(C)CC3)nc1Nc1ccc2nccnc2c1P(C)(C)=O ≤ 50 nM

Return GI50 (reported value) for this compound: C=Cc1cnc(Nc2cc(C3CC3)c(N3CCC(N4CCN(C)CC4)CC3)cc2OC)nc1Nc1ccc2nccnc2c1S(=O)(=O)NC 50 to 500 nM

Output measured GI50 for this item: C=Cc1cnc(Nc2ccc(N3CCC(N4CCN(C)CC4)CC3)c(CC)c2)nc1Nc1ccc2nccnc2c1S(C)(=O)=O 50 to 500 nM

Supply measured GI50 of C=Cc1cnc(Nc2cc(CC)c(N3CCC(N4CCN(C)CC4)CC3)cc2OC)nc1Nc1ccc2nccnc2c1NS(=O)(=O)C(C)C in your reply. 50 to 500 nM

----------
molecular target: BaF3 cell lines stably transfected with kinase EGFR Del/T790M/C797S (Homo sapiens, UniProt P00533, T790M/C797S, cells depend on it, form not given); test: Growth inhibition of BaF3 cell line stably transfected with kinase EGFR Del/T790M/C797S (MTS); format: cell-based; conditions: 48 h, read-out: growth inhibitory activity IC50, Del/T790M/C797S
Sequence (P00533 with tags, fused parts or gaps DEL746-750/T790M/C797S, form open): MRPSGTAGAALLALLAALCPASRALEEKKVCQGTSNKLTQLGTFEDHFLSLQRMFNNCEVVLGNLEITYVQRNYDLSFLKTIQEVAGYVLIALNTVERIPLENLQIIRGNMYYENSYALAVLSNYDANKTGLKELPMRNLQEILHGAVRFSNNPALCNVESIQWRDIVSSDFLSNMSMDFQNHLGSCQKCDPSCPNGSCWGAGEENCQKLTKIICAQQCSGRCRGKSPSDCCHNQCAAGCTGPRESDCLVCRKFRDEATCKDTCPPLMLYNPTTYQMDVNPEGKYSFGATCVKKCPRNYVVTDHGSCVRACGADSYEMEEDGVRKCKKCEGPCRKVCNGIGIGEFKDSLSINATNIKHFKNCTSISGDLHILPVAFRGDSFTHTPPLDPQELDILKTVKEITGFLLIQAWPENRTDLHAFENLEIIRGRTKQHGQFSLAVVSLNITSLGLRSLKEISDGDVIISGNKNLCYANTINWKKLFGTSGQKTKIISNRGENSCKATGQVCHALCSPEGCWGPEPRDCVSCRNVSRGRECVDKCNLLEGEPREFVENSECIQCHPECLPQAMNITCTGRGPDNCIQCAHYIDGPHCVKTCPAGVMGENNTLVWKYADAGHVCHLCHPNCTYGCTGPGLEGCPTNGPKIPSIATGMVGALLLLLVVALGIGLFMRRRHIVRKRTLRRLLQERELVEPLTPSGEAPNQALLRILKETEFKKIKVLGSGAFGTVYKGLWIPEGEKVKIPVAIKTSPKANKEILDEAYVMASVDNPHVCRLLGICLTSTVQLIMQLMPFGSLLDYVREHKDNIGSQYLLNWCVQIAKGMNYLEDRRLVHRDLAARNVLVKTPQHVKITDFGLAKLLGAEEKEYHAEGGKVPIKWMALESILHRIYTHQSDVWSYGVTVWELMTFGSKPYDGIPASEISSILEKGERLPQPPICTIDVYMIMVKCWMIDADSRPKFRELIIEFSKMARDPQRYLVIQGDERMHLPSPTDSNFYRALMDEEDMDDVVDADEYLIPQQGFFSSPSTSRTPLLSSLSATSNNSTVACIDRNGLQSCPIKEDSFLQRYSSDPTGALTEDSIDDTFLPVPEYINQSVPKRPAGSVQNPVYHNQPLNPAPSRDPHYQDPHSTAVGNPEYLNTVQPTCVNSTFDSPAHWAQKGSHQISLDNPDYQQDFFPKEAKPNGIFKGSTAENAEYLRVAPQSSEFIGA
property.measured: GI50

Completed entries (count: 4):
{"molecule": "C=Cc1cnc(Nc2cc(CC)c(N3CCN(C)CC3)cc2OC)nc1Nc1ccc2nccnc2c1S(C)(=O)=O [III-4]", "GI50": "500 to 2500 nM"}
{"molecule": "C=C(C)c1cnc(Nc2cc(C3CC3)c(N3CCC(N4CCN(C)CC4)CC3)cc2OC)nc1Nc1ccc2nccnc2c1N(C)S(C)(=O)=O [II-23]", "GI50": "50 to 500 nM"}
{"molecule": "C=Cc1cnc(Nc2cc(CC)c(N3CCC(N4CCN(C)CC4)CC3)cc2OC)nc1Nc1ccc2nccnc2c1S(=O)(=O)NC [IV-3]", "GI50": "50 to 500 nM"}
{"molecule": "C=C(C)c1cnc(Nc2cc(CC)c(N3CCC(N4CCN(C)CC4)CC3)cc2OC)nc1Nc1ccc2nccnc2c1N(C)S(C)(=O)=O [II-21]", "GI50": "≤ 50 nM"}

Name the recorded GI50 of the item C=Cc1cnc(Nc2cc(F)c(N3CCC(N4CCN(C)CC4)CC3)c(F)c2)nc1Nc1ccc2nccnc2c1S(=O)(=O)NC [IV-11] in your answer. 50 to 500 nM

Indicate the recorded GI50 value for this molecule: C=Cc1cnc(Nc2cc(CC3CC3)c(N3CCC(N4CCN(C)CC4)CC3)cc2OC)nc1Nc1ccc2nccnc2c1NS(C)(=O)=O [II-37] 50 to 500 nM

Tell us which GI50 value is on record for CCc1cc(Nc2ncc(C3=CCCC3)c(Nc3ccc4nccnc4c3N(C)S(C)(=O)=O)n2)c(OC)cc1N1CCC(N2CCN(C)CC2)CC1 [II-27] 500 to 2500 nM
